Test Target: ADRBK2 (human)
Procedure Details: radiometric filter-binding kinase assay, Kinase HotSpot
Experimental Setup: compound 0.5 µM; ATP 10 µM

| Structure Notation | Test Target | residual activity |
| --- | --- | --- |
| O=c1c2ccccc2[nH]c(=S)n1CCN1CCC(=C(c2ccc(F)cc2)c2ccc(F)cc2)CC1 | ADRBK2 (human) | 102% |
| O=c1c(-c2ccc(F)cc2)c(-c2ccncc2)[nH]n1-c1ccc(Cl)cc1 | ADRBK2 (human) | 95% |
| O=C1NC(=O)c2cc(Nc3ccc(F)cc3)c(Nc3ccc(F)cc3)cc21 | ADRBK2 (human) | 104% |
| COc1cc2c(Nc3ccc(Br)cc3F)ncnc2cc1OCC1CCN(C)CC1 | ADRBK2 (human) | 97.4% |
